Foxtail, Green plant response rating for assorted compounds
- System: green foxtail
- MEASUREMENT NOTES: Test C preemergence
- Assay type: in vivo, Setaria viridis
- ASSAY CONTEXT: 500 g ai/ha, preemergence; 0 to 100 scale (0 no effect, 100 complete control)

In the examples that follow, each entry is paired with its recorded Foxtail, Green plant response rating.
{"COMPOUND": "CCOC[C@H]1CN(C(=O)c2cc(-n3cnc(C(C)(C)C)n3)ccc2C)c2cccc(Cl)c2O1", "READOUT NAME": "Foxtail, Green plant response rating", "VALUE OBSERVED": 100}
{"COMPOUND": "CCOC[C@H]1CN(C(=O)c2cc(-n3cnc(C(C)C)n3)ccc2OC)c2cccc(Cl)c2O1", "READOUT NAME": "Foxtail, Green plant response rating", "VALUE OBSERVED": 100}
{"COMPOUND": "CCc1ccc(-n2cnc(C(C)(C)O)n2)cc1C(=O)N1C[C@H](C)Oc2c(C)cccc21", "READOUT NAME": "Foxtail, Green plant response rating", "VALUE OBSERVED": 100}

Consider CCOCC1CN(C(=O)c2cc(-n3cnc(CC)n3)ccc2OC)c2cccc(Cl)c2O1 (centres unmarked) . Its measured Foxtail, Green plant response rating is 100

Item: CNc1ncn(-c2cccc(C(=O)N3C[C@H](C)Oc4c(C)cccc43)c2)n1 | Foxtail, Green plant response rating: 100

Form field Foxtail, Green plant response rating, entry CCc1ncn(-c2ccc(C)c(C(=O)N3CC(C(F)(F)F)Oc4c(Cl)cccc43)c2)n1 (racemic) : 100

// field: Foxtail, Green plant response rating; key: Cc1ccc(-n2cnc(CC3CC3)n2)cc1C(=O)N1C[C@H](C)Oc2c(Cl)cccc21 ; value = 100

Measured Foxtail, Green plant response rating of CC(C)c1ncn(-c2cccc(C(=O)N3CC(C(F)(F)F)Oc4c(Cl)cccc43)c2)n1 (single isomer, unassigned) : 70

The compound Cc1cccc2c1O[C@@H](C)CN2C(=O)c1cccc(-n2cnc([N+](=O)[O-])n2)c1 showed Foxtail, Green plant response rating equal to 50

Kindly note the recorded Foxtail, Green plant response rating for COCc1ncn(-c2ccc(C)c(C(=O)N3C[C@H](C)Oc4c(Cl)cccc43)c2)n1 , which is 100

// Foxtail, Green plant response rating lookup, compound = COC[C@H]1CN(C(=O)c2cc(-n3cnc(C(C)(C)O)n3)ccc2OC)c2cccc(Cl)c2O1 , result: 100
